Experiment: Inhibitory activity (RA1) against Prostaglandin G/H synthase 1 was calculated relative to aspirin
Measurement name: relative activity vs aspirin

| Compound | relative activity vs aspirin |
| --- | --- |
| Cc1cc(C)c(C)c(N2C(=O)c3ccccc3C2=O)c1C | 0.2 |
| O=C1c2ccccc2C(=O)N1c1c[nH]c(=O)[nH]c1=O | 0.44 |
| COc1cc(OC)nc(-n2c(O)cc3ccccc3c2=O)n1 | 10.2 |
| C[C@@]1(N2C(=O)c3ccc(N)cc3C2=O)CCC(=O)NC1=O | 0.12 |
| C[C@@]1(N2C(=O)c3ccccc3C2=O)CCC(=O)NC1=O | 0.29 |

// relative activity vs aspirin value for `Cc1cc(C)cc(N2C(=O)c3ccccc3C2=O)c1` : 7.4

// relative activity vs aspirin value for `C[C@@]1(N2C(=O)c3ccc([N+](=O)[O-])cc3C2=O)CCC(=O)NC1=O` : 0.54

// relative activity vs aspirin value for `C[C@@]1(N2C(=O)c3cccc(N)c3C2=O)CCC(=O)NC1=O` : 0.17

// relative activity vs aspirin value for `Cc1cc(C)nc(-n2c(O)cc3ccccc3c2=O)c1` : 12.5

// relative activity vs aspirin value for O=C1CCC(N2C(=O)c3ccccc3C2=O)C(=O)N1 (racemic) [(+/-)-thalidomide] : 0.37

// relative activity vs aspirin value for `Cc1cc(C)nc(-n2c(O)cc3ccccc3c2=O)n1` : 3.85

----------
// values below are reported relative activity vs aspirin
Assay: Inhibitory activity (RA1) against Prostaglandin G/H synthase 1 was calculated relative to aspirin
Write the number on its own, no unit after it.

// relative activity vs aspirin value for `Cc1cc(C)c(C)c(N2C(=O)c3ccccc3C2=O)c1` : 0.33

// relative activity vs aspirin value for `COc1cc(C)nc(-n2c(O)cc3ccccc3c2=O)n1` : 21.7

// relative activity vs aspirin value for `Cc1cc(C)cc(-n2c(O)cc3ccccc3c2=O)c1` : 95.2

// relative activity vs aspirin value for `C[C@@]1(N2C(=O)c3cccc([N+](=O)[O-])c3C2=O)CCC(=O)NC1=O` : 0.4

// relative activity vs aspirin value for `O=C1c2ccccc2C(=O)N1CCn1ccc(=O)[nH]c1=O` : 1.23

// relative activity vs aspirin value for `O=C1CCN(N2C(=O)c3ccccc3C2=O)C(=O)N1` : 0.6

// relative activity vs aspirin value for O=C1NCCCC1N1C(=O)c2ccccc2C1=O (configuration not stated) : 0.85

----------
Assay: Inhibitory activity (RA2) against Prostaglandin G/H synthase 2 was calculated relative to aspirin
Labelling field: enter 1 (yes) if recorded relative activity vs aspirin is less than 4. Enter 0 (no) if it equals or exceeds that cut-off.

| Structure as smiles | Label value |
| --- | --- |
| O=C1CCN(N2C(=O)c3ccccc3C2=O)C(=O)N1 | 1 (yes) |
| Cc1cc(C)nc(-n2c(O)cc3ccccc3c2=O)c1 | 0 (no) |
| O=C1c2ccccc2C(=O)N1CCn1ccc(=O)[nH]c1=O | 1 (yes) |
| Cc1cc(C)c(C)c(N2C(=O)c3ccccc3C2=O)c1 | 1 (yes) |

Turning to the following molecule.
Prompt line: Decide: relative activity vs aspirin of `COc1cc(OC)nc(-n2c(O)cc3ccccc3c2=O)n1` strictly below 4?
Response line: 1 (yes)
